All values here come from patent US20200325177A1.

MIC: recorded values
# System: H. influenzae ATCC 49247
# PROTOCOL TEXT: MIC, Gram-negative bacteria: H. influenzae ATCC 49247
# Format: cell-based
# TEST CONDITIONS: Haemophilus influenzae, ATCC49247, read-out: Minimal Inhibitory Concentration (MIC) H. influenzae ATCC 49247
Give your result in µg/mL as a bare value.

COMPOUND: CC1=C\[C@@H](O)CC(=O)Cc2nc(co2)C(=O)N2CCC[C@@H]2C(=O)O[C@H](C(C)C)[C@H](C)/C=C/C(=O)NC\C=C\1 [virginiamycin M2, Virginiamycin M2, reference compound]
UNITS: µg/mL
MIC: 16

Input CC1=C\[C@@H](O)CC(=O)Cc2nc(co2)C(=O)N2CCC[C@@H]2C(=O)O[C@H]([C@H](C)COC(=O)Nc2ccc3ccccc3n2)[C@H](C)/C=C/C(=O)NC\C=C\1 . Output MIC: 8

Looking up CC1=C\[C@@H](O)CC(=O)Cc2nc(co2)C(=O)N2CCC[C@@H]2C(=O)O[C@H]([C@H](C)COC(=O)Nc2cc(C)on2)[C@H](C)/C=C/C(=O)NC\C=C\1 , I see its MIC listed as 16

For record CC1=C\[C@@H](O)C[C@@H](F)Cc2nc(cs2)C(=O)N2CCC[C@@H]2C(=O)O[C@H](C(C)C)[C@H](C)/C=C/C(=O)NC\C=C\1 the listed MIC is 0.25

For record CC1=C\[C@@H](O)CC(=O)Cc2nc(co2)C(=O)N2CCC[C@@H]2C(=O)O[C@H]([C@@H](C)COC(=O)Nc2ccccn2)[C@H](C)/C=C/C(=O)NC\C=C\1 the listed MIC is 32

* * *

# System: Gram-Negative Organisms
# PROTOCOL TEXT: microbe, parasite or virus in culture
# Assay type: cell-based
# TEST CONDITIONS: Escherichia coli, read-out: Minimal Inhibitory Concentration (MIC), E. coli BAS2006, OMP C, OMP F
TEST READOUT: log10 MIC (log10 of the value in µg/mL)
Hello, just confirming the data are log10 of MIC with units of µg/mL.

Illustrative cases are given below, each with its answer.
COMPOUND: CC1=C\[C@@H](O)CC(=O)Cc2nc(co2)C(=O)N2CCC[C@@H]2C(=O)O[C@H]([C@@H](C)COC(=O)Nc2ccnc(Br)c2)[C@H](C)/C=C/C(=O)NC\C=C\1
log10 MIC: 1.51

COMPOUND: CC1=C\[C@@H](O)CC(=O)Cc2nc(co2)C(=O)N2CCC[C@@H]2C(=O)O[C@H](C(C)(C)C)[C@H](C)/C=C/C(=O)NC\C=C\1
log10 MIC: 0.60

COMPOUND: CC1=C\[C@@H](O)C[C@@H](F)Cc2nc(cs2)C(=O)N2CCC[C@@H]2C(=O)O[C@H](C(C)C)[C@H](C)/C=C/C(=O)NC\C=C\1
log10 MIC: -0.60

COMPOUND: CC1=C\[C@@H](O)CC(N)Cc2nc(cs2)C(=O)N2CCC[C@@H]2C(=O)O[C@H](C(C)C)[C@H](C)/C=C/C(=O)NC\C=C\1 (some centres unmarked)
log10 MIC: 1.20

COMPOUND: CC1=C\[C@@H](O)C[C@@H](O)Cc2nc(cs2)C(=O)N2CCC[C@@H]2C(=O)O[C@H](C(C)C)[C@H](C)/C=C/C(=O)NC\C=C\1
log10 MIC: 0.60

Now turn to the next compound.
GET /values?item= CC1=C\[C@@H](O)CC(=O)Cc2nc(co2)C(=O)N2CCC[C@@H]2C(=O)O[C@H]([C@H](C)COC(=O)Nc2ccccn2)[C@H](C)/C=C/C(=O)NC\C=C\1 &system= Gram-Negative Organisms returns log10 MIC: 1.81
